- System: HL-60(TB) leukemia
- assay overview: NCI-60 one-dose screen, 48 h (100 = growth as untreated, 0 = no growth, -100 = all killed)
- condition info: 10 µM unless noted
The panel holds about 83,000 compounds, 20% with a hit somewhere; the sample as a whole holds those more often.
observation type: growth (%)
# value in %; strip the unit string

Worked examples follow.
INSERT INTO assay_data (compound, units_symbol, val) VALUES
  ('N#C/C(Sc1nc2sc3c(c2c(=O)n1Cc1ccccc1)CCCC3)=C1/SC=C(c2ccc(Cl)cc2)N1c1ccccc1', '%', 84.3),
  ('CC(C)=CCCC(C)C1=C(O)C(=O)C(C)=CC1=O (centres undefined)', '%', -47.1);

For reference, reported growth for CCN1C(=O)N(CC)C2C1NN=c1s/c(=C3\C(=O)N(CCc4ccccc4)c4ccccc43)c(=O)n12 (centres undefined) stands at -46.1

For reference, reported growth for "O=S(=O)(NCCNc1cc(-c2c(-c3cccc(O)c3)nc3sccn23)ccn1)c1ccc(Br)cc1" stands at 77.6

For reference, reported growth for "NC(=O)c1cccc(-n2ccc3cc(NC(=O)Nc4ccc(Cl)c(Cl)c4)ccc32)n1" stands at 102

For reference, reported growth for "CC(=O)Oc1ccccc1C(=O)/C=C/c1cccc([N+](=O)[O-])c1" stands at 17.3

For reference, reported growth for "COc1cc(OC)c(/C=C/S(=O)(=O)Cc2ccc(OC)c(NCC(=O)O)c2)c(OC)c1" stands at -32

For reference, reported growth for "O=C(Cc1ccc(-c2ccc(OCCN3CCOCC3)cc2)cn1)NCc1ccccc1" stands at -31.2

For reference, reported growth for "COc1ccc(-c2cc(-c3cccnc3)nc3sc(C(=O)Nc4ccccc4)c(N)c23)cc1OC" stands at 60.2

---

- Tested on: NCI-H23 lung
- assay overview: NCI-60 one-dose screen, 48 h (100 = growth as untreated, 0 = no growth, -100 = all killed)
- condition info: 10 µM unless noted
- Description: Growth inhibition of the NCI-H23 human Non-Small Cell Lung tumor cell line is measured as a screen for anti-cancer activity. Cells are grown in 96 well plates and exposed to the test compound for 48 hours. Compounds are tested at a single concentration, which is 10^-5 M for most compounds. The reported endpoint is percent growth (GI% or GIPRCNT), where numbers from 0 - 100% represent growth inhibition, and numbers from -100% - 0 represent cell death. […]
The panel holds about 83,000 compounds, 20% with a hit somewhere; the sample as a whole holds those more often.
growth values for the molecules below.
# value in %; strip the unit string

INSERT INTO assay_data (molecule, tested_system, val) VALUES
  ('CCCCCCCCCCOc1ccc(C(=O)Oc2ccc(CSP3(=O)OCC4OC(n5ccc(=O)[nH]c5=O)C(F)C4OP(=O)(O)OCC4OC(n5cnc6c(N)ncnc65)C(F)C4O3)cc2)cc1 (centres undefined)', 'NCI-H23 lung', 103),
  ('O=[N+]([O-])c1ccc(/C=C/C=C/c2ccc(S(=O)(=O)F)cc2)c(Cl)c1', 'NCI-H23 lung', 96.4),
  ('Nc1nc(N)c(-c2ccc(Cl)c(Cl)c2)c(/C=C/c2ccc(S(=O)(=O)F)cc2)n1', 'NCI-H23 lung', 106);

Short answer on NCI-H23 lung for "CCOc1cc(C=C(C#N)C#N)cc(Br)c1O" , growth: 99
